Cited source: PubChem BioAssay (Tox21)

Experiment: qHTS assay to identify small molecule agonists of the estrogen receptor alpha (ER-alpha) signaling pathway in the presence of an antagonist - cell viability counter screen (AID 1259386);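 also: cells exposed to compounds for 22 h at 37 °C before the viability read; nearly all actives have a fitted effect of over 30% in size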
Details: VM7Luc4E2 viability, CellTiter-Fluor fluorescence, 22 h; series mostly up to 92.4 µM
Text: National Center for Advancing Translational Sciences [NCATS] NIH Chemical Genomics Center [NCGC] U.S. Environmental Protection Agency [EPA] National Institutes of Environmental Health Sciences [NIEHS] National Toxicology Program [NTP] U.S. Food and Drug Administration [FDA] Estrogen receptor (ER), a member of nuclear hormone receptor plays an important role in development, metabolic homeostasis and reproduction. […]
Inconclusive results are not listed. Active and inactive are the calls of the source. Calls follow the shape of the dose curve; as a rule, active = well fitted cell-killing curve with a large enough effect in the repeat runs; inconclusive = weak or mixed curves, or effect the other way; inactive = no such curve, though single readings can be large or run the other way.
measurementName: outcome

In the examples that follow, each entry is paired with its recorded outcome.
Nc1nc(N)c(N)c(N)n1 : inactive
CCOP(=O)(OCC)Oc1nc(Cl)c(Cl)cc1Cl : inactive
N#CSCc1ccccc1 : inactive
COCCC#N : inactive
CCC(OC(C)=O)C(CC(C)NC)(c1ccccc1)c1ccccc1 (stereo not given) : inactive

Look up outcome for the entries below, preserving their order.
1. CCC(C)c1cccc(C(C)CC)c1O (stereo not given)
2. [O]=[Cr][O][Cr]=[O]
3. C[C@]12CC[C@H]3[C@@H](CCC4=CC(=O)CC[C@@H]43)[C@@H]1CC[C@@H]2OC(=O)CCc1ccco1
4. CNN
5. O=c1[nH]c(Cl)c(Cl)cc1Cl
6. CCN(CC)C(=O)N[C@@H]1C=C2c3cccc4[nH]cc(c34)C[C@@H]2N(C)C1
7. CCOP(=S)(OCC)SC(CCl)N1C(=O)c2ccccc2C1=O (stereo not given)

1: inactive; 2: inactive; 3: inactive; 4: inactive; 5: inactive; 6: inactive; 7: inactive

Would you be so kind as to report outcome for each listed record?
1. Cc1ccn2nc(S(=O)(=O)Nc3c(F)cccc3F)nc2n1
2. [Cl-].[Cl-].[Cl-].[Yb+3]
3. Brc1ccc(Oc2ccc(Br)cc2Br)c(Br)c1
4. CCN(CC)Cc1nccn1-c1ccc([N+](=O)[O-])cc1C(=O)c1ccccc1Cl
5. CN
6. Cc1cc(C2CC2)nc(Nc2ccccc2)n1
7. c1csc(-c2ccc(-c3cccs3)s2)c1
8. COC(=O)C(C)N(C(=O)c1ccco1)c1c(C)cccc1C (stereo not given)

inactive
inactive
inactive
inactive
inactive
inactive
inactive
inactive
